- target.or.test.system: T1, recombinant, soluble human ASGR-1 (human, UniProt P07306 62-291)
- T1 construct: biotinylated in the binning assay; also called soluble huASGR-1; Soluble ASGR-1 (Amgen)
- T1 sequence: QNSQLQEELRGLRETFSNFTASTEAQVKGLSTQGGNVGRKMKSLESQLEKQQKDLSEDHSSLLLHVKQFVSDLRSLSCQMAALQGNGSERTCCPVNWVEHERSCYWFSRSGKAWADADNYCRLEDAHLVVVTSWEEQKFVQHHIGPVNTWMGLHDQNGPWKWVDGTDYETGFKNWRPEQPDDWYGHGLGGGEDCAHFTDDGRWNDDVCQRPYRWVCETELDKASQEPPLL
- test.protocol: Octet BLI dissociation, pH 5.6 plus calcium
The entries below are paired with their reported % Change Compared to pH 7.4 + Calcium.

- binder: "194B7 (antibody, V domains shown, hybridoma mAb) VH: QVQLVESGGGVVQPGRSLRLSCAASGFTFSSYGMHWVRQAPGKGLEWVAVIWYDGSNKNYADSVKGRFTISRDNSKNTLYLQMNSLRAEDTAVYYCARDRSKGYDGMDVWGQGTTVTVSS VL: DIQMTQSPSSLSASVGDRVTITCRASQGISKYLAWFQQKPGKAPKSLIYGASRLQSGVPSKFSGSGSGTDFTLTISSLQPEDFATYYCQHYLNYPLTFGQGTRLEIK"
  % Change Compared to pH 7.4 + Calcium / %: -4
- binder: "198G3 (antibody, V domains shown, hybridoma mAb) VH: QVQLVESGGGVVQPGRSLKLSCAASGFTFSTYGMHWVRQAPGKGLEWVAVIWYDGTNKNYADSVKGRFTISRDNSKNTLCLQMNSLRAEDTAVYYCARDQGVGYDGLDVWGQGTTVTVSS VL: DIQMAQSPSSLSASVGDRVTITCRTSQGIGKYLAWFQQKPGKAPKSLLYKASSLQGGVPSKFSGSGSGTDFTLTISSLQPEDFATYYCQQYMTYPLTFGGGTKVEIK"
  % Change Compared to pH 7.4 + Calcium / %: -4
- binder: "6G7 (antibody, V domains shown, hybridoma mAb) VH: QVQLVESGGGVVQPGRSLRLSCAASGFTFSSYGMHWVRQTPGKGLEWVAIISYVGKNKYYADSVKGRFTISRDNSKNTLYLQMNSLRAEDTAVYYCARRGNSYGGYGMDVWGQGTTVTVSS VL: DIQMTQSPSSRSASVGDRVTITCQASQDISNYLNWCQQKPGKALKLLIYDASTLETGVPSRFSGSGSGTDFTFTISSVQPEDIATYYCQQYDNVPITFGQGTRLEIK"
  % Change Compared to pH 7.4 + Calcium / %: 4
- binder: "51E9 (antibody, V domains shown, hybridoma mAb) VH: QVQLVQSGAEVKKPGASVKVSCKASRYTFTGYHIHWVRQAPGQGLEWMGWINPNTNGTQYAQKFQGRVTMTRDTSISTAYMELSRLRSDDTAVYYCARDGTSSFDYWGQGTLVTVSS VL: DIQMTQSPSSVSASVGDRVTITCRASQGISSWLAWYQQKPGKAPKLLIYVASSLQSGVPSRFSGSGSGTDFTLTIRSLQPEDFATYYCQQAKSFPFTFGPGTKVDIK"
  % Change Compared to pH 7.4 + Calcium / %: -5
- binder: "192C8 (antibody, V domains shown, hybridoma mAb) VH: QVQLVESGGGVVQPGRSLRLSCAASGFTFSSYGMHWVRQAPGKGLEWVAVIWYDGSNEHYADSVKGRFMISRDNSKNTLYLQMNSLRAEDTAVYYCARDRGVGYYGMDVWGQGTTVTVSS VL: DIQMTQSPSSLSASVGDRVTITCRASQGISNYLAWFQQKPGKAPKSLIYAASSLQSGVPSKFSGSGSGTDFTLTISSLQPEDFATYYCQHYLTYPLTFGGGTKVEIK"
  % Change Compared to pH 7.4 + Calcium / %: -14
- binder: "190F12 (antibody, V domains shown, hybridoma mAb) VH: QVQLVESGGGVVQPGRSLRLSCAASGFTFRNYGMHWVRQAPGKGLEWVAVIWFDGSNDYYADSVKGRFTISRDNSKNTLSLQMNSLRAEDTAVYYCARDRSVGYDGLDVWGQGTTVTVSS VL: DIQMTQSPSSLSASVGDRVTITCRASQGIGKYLAWFQQKPGKAPKSLIYAASSLQSGVPSKFSGSGSGTDFTLTISSLQPDDFATYYCQRYDTYPFTFGPGTKVDIK"
  % Change Compared to pH 7.4 + Calcium / %: -6
